# Study Target: Enterococcus faecalis HMG-CoA reductase (efHMGR) (Enterococcus faecalis, UniProt A0A4U3MLJ4)
# Construct: gene EY666_03235; C-terminal domain (residues 381-803) of the mvaE gene product, N-terminal 6X-His tag
# Assay Explanation: X-ray co-crystal structure ([…] Å); mevalonate oxidation enzyme assay with Ki (IC50 […])
# Assay type: biochemical
Quantity Name: pKi
API: returns pKi as number; meaning -log10 of concentration in mol/L.

Look at this molecule and give its reported pKi. CCCCc1ccc(NS(=O)(=O)c2ccc(O)c(C(=O)O)c2)cc1
5.70

Source listed as paper PMC10070635.
